# target: PfCRT^3D7 (Plasmodium falciparum)
# assay-procedure: cell-based
# Assay type: cell-based
# condition-details: total [3H]CQ transport; [test solute] = 2 mM; mean ± SEM; SEM; read-out: Uptake of [3H]CQ (% PfCRTDd2 control), cis-inhibition, PfCRT3D7
# Protocol: The orientation of PfCRT in the parasite’s DV membrane, and also in the oocyte plasma membrane, is such that its N- and C-termini extend into the cytosol. The oocytes were suspended in a reaction buffer adjusted to pH 5.5 to mimic the pH of the DV lumen[1],[2]. […] Unless specified otherwise, this is the direction in which substrate transport was measured in the oocyte assays. […]
recorded-metric: inhibition at 2000 µM

Worked set:
{"mol": "C[C@@H](O)[C@H](N)C(=O)O", "inhibition at 2000 µM": "3.3%"}
{"mol": "CC[C@H](C)[C@H](N)C(=O)O", "inhibition at 2000 µM": "2.8%"}
{"mol": "N=C(N)NCCC[C@H](N)C(=O)O", "inhibition at 2000 µM": "3.3%"}
{"mol": "CC(C)C[C@H](N)C(=O)O", "inhibition at 2000 µM": "3.8%"}
{"mol": "NCCCC[C@H](N)C(=O)O", "inhibition at 2000 µM": "3.1%"}

Would you mind listing inhibition at 2000 µM for each of the following compounds?
1. CC(C)[C@H](N)C(=O)O
2. N[C@@H](CS)C(=O)O
3. N[C@@H](CCC(=O)O)C(=O)O

["3.4%", "3.1%", "3.2%"]

====

# Test system: non-expressing oocytes
# assay-procedure: cells
# Type: cell-based, Xenopus laevis
# condition-details: Xenopus laevis, Oocyte; total [3H]CQ transport; [test solute] = 1 mM; mean ± SEM; SEM; read-out: Uptake of [3H]CQ (% PfCRTDd2 control), cis-inhibition, non-expressing oocytes
Please mark Met if the recorded inhibition at 1000 µM is equal to or greater than 3%, and Not met if it falls below.

{"compound": "CC[C@H](C)[C@H](N)C(=O)O [L-isoleucine]", "assigned-class": "Met"}

Reported inhibition at 1000 µM at or above 3%? C[C@@H](O)[C@H](N)C(=O)O [L-threonine]
Met

Reported inhibition at 1000 µM at or above 3%? N[C@@H](Cc1c[nH]cn1)C(=O)O [L-histidine]
Not met

Reported inhibition at 1000 µM at or above 3%? C[C@H](N)C(=O)O [L-alanine]
Met

Reported inhibition at 1000 µM at or above 3%? N[C@@H](Cc1c[nH]c2ccccc12)C(=O)O [L-tryptophan]
Met

====

# target: PfCRT^Dd2 (Plasmodium falciparum, UniProt Q9N623, A220S/I356T/K76T/M74I/N326S/N75E/Q271E/R371I)
# Sequence (Q9N623 whole entry A220S/I356T/K76T/M74I/N326S/N75E/Q271E/R371I): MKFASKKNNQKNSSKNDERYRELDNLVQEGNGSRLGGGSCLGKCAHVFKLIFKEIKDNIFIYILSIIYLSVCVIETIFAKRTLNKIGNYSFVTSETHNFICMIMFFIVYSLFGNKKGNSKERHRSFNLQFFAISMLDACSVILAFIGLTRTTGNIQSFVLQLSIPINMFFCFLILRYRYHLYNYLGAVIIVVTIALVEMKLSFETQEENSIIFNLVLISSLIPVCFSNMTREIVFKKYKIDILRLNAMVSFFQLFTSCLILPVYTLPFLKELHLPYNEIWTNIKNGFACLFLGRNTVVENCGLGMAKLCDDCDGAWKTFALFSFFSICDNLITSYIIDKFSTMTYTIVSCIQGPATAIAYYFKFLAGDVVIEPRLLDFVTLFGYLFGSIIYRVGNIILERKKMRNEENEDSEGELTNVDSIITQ
# assay-procedure: cell-based
# Assay type: cell-based
# condition-details: […], pH 5.5, read-out: [3H]CQ transport (% PfCRTDd2 control), trans-stimulation, PfCRTDd2, trans-stimulation; [test solute]i = 45 mM (30 mM for some solutes due to solubility); PfCRT-mediated component (background subtracted); mean ± SEM; SEM
Please provide measured activity at 45000 µM for the entries that follow.
Answers are plain numbers, in %.

Worked set:
{"compound": "N[C@@H](CCC(=O)O)C(=O)O [L-glutamic acid]", "test-result": 94}
{"compound": "N[C@@H](Cc1c[nH]c2ccccc12)C(=O)O [L-tryptophan]", "test-result": 99}
{"compound": "N[C@@H](Cc1ccccc1)C(=O)O [L-phenylalanine]", "test-result": 98}
{"compound": "NCCCC[C@H](N)C(=O)O [L-lysine]", "test-result": 95}

Consider the additional compound presented here.
Report activity at 45000 µM for NC(=O)CC[C@H](N)C(=O)O [L-glutamine] please.
98

====

Please provide measured activity at 5000 µM for the entries that follow.
# target: PfCRT^Dd2 (Plasmodium falciparum, UniProt Q9N623, A220S/I356T/K76T/M74I/N326S/N75E/Q271E/R371I)
# assay-procedure: cell-based
# Format: cell-based
# condition-details: […], pH 5.5, read-out: Uptake of [3H]CQ (% PfCRTDd2 control), trans-stimulation, PfCRTDd2 oocytes; [test solute]i = 5 mM; total [3H]CQ transport, normalised to the oocyte type control
Numbers only, in %.

Worked set:
{"compound": "N[C@@H](CO)C(=O)O [L-serine]", "activity at 5000 µM [%]": 99}
{"compound": "N[C@@H](CCC(=O)O)C(=O)O [L-glutamic acid]", "activity at 5000 µM [%]": 101}
{"compound": "CC[C@H](C)[C@H](N)C(=O)O [L-isoleucine]", "activity at 5000 µM [%]": 96}

Would you mind listing activity at 5000 µM for each of the following compounds?
1. N[C@@H](Cc1c[nH]cn1)C(=O)O [L-histidine]
2. N[C@@H](CS)C(=O)O [L-cysteine]
3. CSCC[C@H](N)C(=O)O [L-methionine]
4. N[C@@H](Cc1ccc(O)cc1)C(=O)O [L-tyrosine]
5. C[C@@H](O)[C@H](N)C(=O)O [L-threonine]

1. 101
2. 99
3. 100
4. 101
5. 98

====

# target: PfCRT^Ecu1110 (Plasmodium falciparum, UniProt Q9N623, A220S/I356L/K76T/N326D)
# Sequence (Q9N623 whole entry A220S/I356L/K76T/N326D): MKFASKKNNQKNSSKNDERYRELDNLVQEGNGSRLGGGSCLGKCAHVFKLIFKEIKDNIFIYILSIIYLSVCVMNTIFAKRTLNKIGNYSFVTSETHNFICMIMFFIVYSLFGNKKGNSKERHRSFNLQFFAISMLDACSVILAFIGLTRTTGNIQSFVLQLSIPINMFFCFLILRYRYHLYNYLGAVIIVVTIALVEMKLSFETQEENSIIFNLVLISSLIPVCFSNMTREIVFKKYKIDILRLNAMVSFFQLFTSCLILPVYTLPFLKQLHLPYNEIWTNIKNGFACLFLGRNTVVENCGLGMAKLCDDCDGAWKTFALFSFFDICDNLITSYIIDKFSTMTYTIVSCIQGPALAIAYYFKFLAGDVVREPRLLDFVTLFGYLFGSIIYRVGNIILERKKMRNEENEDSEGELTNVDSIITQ
# assay-procedure: [3H]CQ uptake into Xenopus oocytes, cis-inhibition by unlabelled solute
# Format: cell-based
# condition-details: [test solute] = 2 mM; PfCRTEcu1110 oocytes; background [3H]CQ accumulation subtracted; normalised to oocyte type control
Please provide measured PfCRT-mediated [3H]CQ transport, cis-inhibition (% PfCRTEcu1110 control) for the entries that follow.
Numbers only, in % PfCRTEcu1110 control.

{"substance": "EFTPPVQA [EA-8]", "test-result": 29}
{"substance": "VDEVGG [VG-6]", "test-result": 39}
{"substance": "LHVDPENF [LF-8]", "test-result": 11}
{"substance": "HVDDMPN [HN-7]", "test-result": 21}

Would you mind listing PfCRT-mediated [3H]CQ transport, cis-inhibition (% PfCRTEcu1110 control) for each of the following substances?
1. HVDPENFRL [HL-9]
2. DMPNALS [DS-7, host-derived peptide upstream of PL-4]
3. YFPHFDLS [YS-8]
4. VLSPAD [VD-6]
5. HVDDMP [HP-6]

[28, 29, 25, 39, 21]

Would you mind listing PfCRT-mediated [3H]CQ transport, cis-inhibition (% PfCRTEcu1110 control) for each of the following substances?
1. DTSLKPIS [DS-8]
2. DLDDALDK [DK-8]
3. HVDDMPNA [HA-8]
4. DLHAHKLR [DR-8]
5. VHLTPEEK [VK-8]
6. KEFTPPVQA [KA-9]

[28, 30, 27, 28, 41, 30]

Report PfCRT-mediated [3H]CQ transport, cis-inhibition (% PfCRTEcu1110 control) for VDPVNFK [VK-7] please.
22

====

# target: PfCRT^3D7 (Plasmodium falciparum, UniProt Q8IBZ9)
# Sequence (Q8IBZ9 59-398): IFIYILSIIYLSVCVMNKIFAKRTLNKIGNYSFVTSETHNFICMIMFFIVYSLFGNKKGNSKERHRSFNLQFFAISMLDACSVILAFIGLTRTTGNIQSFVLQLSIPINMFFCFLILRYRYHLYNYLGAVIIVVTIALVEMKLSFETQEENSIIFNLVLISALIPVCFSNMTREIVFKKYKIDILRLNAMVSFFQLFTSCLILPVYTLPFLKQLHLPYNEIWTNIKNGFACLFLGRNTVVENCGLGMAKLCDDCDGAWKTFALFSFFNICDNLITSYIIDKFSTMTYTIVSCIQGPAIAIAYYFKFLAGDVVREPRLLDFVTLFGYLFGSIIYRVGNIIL
# assay-procedure: cell-based
# Format: cell-based
# condition-details: […]; read-out: Uptake of [3H]CQ (% PfCRT3D7 control), trans-stimulation
recorded-metric: activity at 45000 µM (%)
Numbers only, in %.

Worked set:
{"mol": "CC(C)C[C@H](N)C(=O)O", "test-result": 97}
{"mol": "C[C@H](N)C(=O)O", "test-result": 99}

Report activity at 45000 µM for CC(C)[C@H](N)C(=O)O please.
98

====

Please provide measured inhibition at 500 µM for the entries that follow.
# target: PfCRT^Dd2 (Plasmodium falciparum, UniProt Q9N623, A220S/I356T/K76T/M74I/N326S/N75E/Q271E/R371I)
# assay-procedure: [3H]CQ uptake into Xenopus oocytes, cis-inhibition by unlabelled solute
# Format: cell-based
# condition-details: read-out: Uptake of [3H]CQ (% PfCRTDd2 control), cis-inhibition, PfCRTDd2; SEM
Answers are plain numbers, in %.

Worked set:
{"mol": "NC(=O)CC[C@H](N)C(=O)O", "recorded-metric": "inhibition at 500 µM", "units-of-measure": "%", "test-result": 100}
{"mol": "C[C@H](N)C(=O)O", "recorded-metric": "inhibition at 500 µM", "units-of-measure": "%", "test-result": 97}

Would you mind listing inhibition at 500 µM for each of the following compounds?
1. N=C(N)NCCC[C@H](N)C(=O)O
2. CC(C)[C@H](N)C(=O)O
3. CC[C@H](C)[C@H](N)C(=O)O
4. N[C@@H](CCC(=O)O)C(=O)O

101
100
97
98

Would you mind listing inhibition at 500 µM for each of the following compounds?
1. C[C@@H](O)[C@H](N)C(=O)O
2. N[C@@H](Cc1ccc(O)cc1)C(=O)O

1. 97
2. 96

All figures here come from paper PMC7413254.
